These entries and their values trace back to PubChem BioAssay.

Documented inhibition across a set of compounds
# target system: L-lactate dehydrogenase (Plasmodium falciparum (isolate CDC / Honduras))
# experimental protocol: PfLDH activity inhibition – cell lysate, 3D7 strain, counter-screen for P. falciparum growth inhibition project (AID 2304);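 also: 0% = vehicle and 100% = reference inhibitor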
# assay setup: P. falciparum 3D7 crude extract, LDH APAD/NBT absorbance; at 2 µM; hits give high values
Report the value in % with no unit label.

- CCc1ccccc1-c1csc(C(=O)NCC2CCN(Cc3ccc(C(C)(C)C)cc3)C2)c1 (centres undefined): -2
- COc1ccc2c(CCNc3nc(SC)ncc3C(=O)NCCc3ccc(F)cc3)c[nH]c2c1: -1
- O=C(Nc1cccc(CN2CCCN(Cc3ccc(O)cc3)CC2)c1)c1cccc(C(F)(F)F)c1: 3

Lab note: need inhibition for O=C(N[C@@H](Cc1ccccc1)C(=O)NCc1cccc(C(F)(F)F)c1)c1ccc(O)c(-c2ccc(Cl)c(Cl)c2)c1 on L-lactate dehydrogenase (Plasmodium falciparum (isolate CDC / Honduras)), anyone have it? -1

What about CCOC(=O)C1=C(C)NC2=C(C(=O)C(C(=O)OC)C(C)C2)C1c1cc(Br)c(OCC)c(OC)c1 (centres undefined) ? 0

Repeat for the following compound: N#Cc1ccc(OCCN(Cc2ccccc2C(F)(F)F)c2ccc(C#N)c(C(F)(F)F)c2)cc1 1

Quick one: O=C(NCC1CCC(C(=O)NCc2cccc(C(F)(F)F)c2)CC1)c1ccc(O)c(-c2ccc(Cl)c(Cl)c2)c1 (centres undefined) 0

How about CCCNCc1ccc(-c2ccc(CN(CCOC)C(=O)[C@H]3CCCO3)cc2)nc1 ? -3

Do the same for COc1cccc(-c2cnc(N)c(-c3nc4ccc(C(F)(F)F)cc4[nH]3)c2)c1 please -4

###

# target system: Calcium-dependent protein kinase 4 (Plasmodium falciparum (isolate 3D7))
# experimental protocol: PfCDPK4 kinase inhibitors, biochemical, TCAMS library (AID 1159588)
# assay setup: recombinant PfCDPK4, Kinase-Glo ATP depletion luminescence
Potency and affinity values are given separately. Activity calls are given as the source filed them. The limit is not given here; nearly all actives have IC50 up to about 0.91 µM.
measurement kind: outcome

Here is how some compounds turned out for outcome.
* CC1(C)N=C(N)N=C(N)N1OCCCOc1ccccc1Cl | inactive
* Cc1cccc(Nc2nc(C)cc(N3CCCN(CC4CCCCC4)CC3)n2)c1 | inactive
* Cc1ccc(Cn2cnc(N3CC(C)NC(C)C3)cc2=O)cc1NC(=O)Nc1ccc(-c2ccccc2)cc1 (centres undefined) | inactive
* COc1ccc(CNCc2cccc(-c3cccc(-c4nc5c(C)cccc5[nH]4)c3)c2)cc1 | inactive
* NS(=O)(=O)c1ccc(CNC(=O)c2cnc3c(O)cccc3c2Nc2cccc(NC(=O)c3ccc(Cl)c(Cl)c3)c2)cc1 | inactive
* Cc1ccc(F)c(OCC2CCN(c3ccc(C(=O)NC4CC4)cn3)CC2)c1 | inactive
* CN(Cc1ccccc1)C(=O)c1nn(CCCN2CCC(N3CCCC3)CC2)cc1-c1ccc(Cl)c(Cl)c1 | inactive
* CN(CCCCCNC(=O)/C=C/c1ccc(Cl)c(Cl)c1)CCc1c[nH]c2ccccc12 | inactive
* Cc1cccc2[nH]c(-c3ccc(-c4ccc(CN5CCN(c6cnccn6)CC5)cc4)s3)nc12 | inactive
* CNC(=O)c1ccc2nc(C3CC3)n(CC3CCN(S(=O)(=O)c4cccc(Cl)c4)CC3)c2c1 | inactive

State its outcome on Calcium-dependent protein kinase 4 (Plasmodium falciparum (isolate 3D7)): COCC(C)n1c(SC(C)C(=O)Nc2cc([N+](=O)[O-])ccc2Cl)nc2ccccc2c1=O (centres undefined) inactive

// query: CCOc1ccc2c(NN=Cc3cccc(F)c3)cc(C)nc2c1 inactive

// same read-out, input: O=C(/C=C/c1ccc(Cl)c(Cl)c1)NCC1CCN(Cc2ccc(O)cc2)CC1 inactive

Next entry: O=C(Nc1cccc(C(F)(F)F)c1)NC1CCN(c2ccnc3ccccc23)C1 (centres undefined) inactive

What do you get for COc1ccc(CN2CCCN(Cc3cccc(C(=O)Nc4ccc(C)c(F)c4)c3)CC2)cc1 ? inactive

Please give the result for CCN1CCCC1CN(Cc1ccc(-c2ccc(C(F)(F)F)cc2)cc1)C(=O)Cn1c(CCc2cccc(F)c2F)nc(=O)c2ccccc21 (centres undefined) too. inactive

###

# experimental protocol: human hepatoma cell viability loss – ATP luminescence, cytotoxicity control for P. falciparum antimalarial project, primary screen (AID 2303);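 also: 0% = DMSO wells and 100% = digitonin-killed cells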
# assay setup: HepG2 viability, 24-48 h, at 10 µM
The source made the active and inactive calls.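 Rule for the calls: active = inhibition above 50%; inactive = the rest.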
Write down one outcome, taken from active, inactive

// known answers, use as guide
• OCCOCCNCc1cccc(C#Cc2cc3ncnc(Nc4ccc(OCc5cccc(F)c5)c(Cl)c4)c3s2)n1 = inactive
• CN1CCCN(Cc2cccc(-c3ccc(NC(=O)c4ccc(Cl)cc4)cc3)c2)CC1 = inactive
• COc1ccc2c(NN=Cc3ccccc3Cl)cc(C)nc2c1 = inactive
• O=[N+]([O-])c1cccc(Nc2cncc(-c3ccc(CO)cc3)c2)c1 = inactive
• CC(C)CC1c2[nH]c3ccccc3c(=O)c2CN1C(=O)OC(C)(C)C (stereo not given) = inactive
• CN1CCC(c2c[nH]c3ccc(NC(=O)Nc4ccc(-c5ccncc5)cc4Cl)cc23)CC1 = inactive
• Cc1cccc(N2CCN(C3CCC(NC(=O)c4cc5ccccc5[nH]4)CC3)CC2)c1C (stereo not given) = inactive
• CN1CCCN(Cc2ccc(-c3ccc(NC(=O)c4ccc(C#N)cc4)cc3)cc2)CC1 = inactive
• CS(=O)(=O)c1ccc(CCNCc2ccc(-c3ccc(CN(C(=O)C4CCCC4)C4CCN(Cc5ccccc5)CC4)cc3)nc2)cc1 = inactive
• CNC(=O)c1ccc2nc(C3CC3)n(CC3CCN(S(=O)(=O)c4cccc(Cl)c4)CC3)c2c1 = inactive

With those in mind, consider the next compound.
Please state the recorded outcome for this compound: CC(=O)C1=NN(c2ccc(C)cc2)C(c2cccs2)N1c1ccccc1 (stereo not given) inactive

###

# experimental protocol: inhibition of 3D7 malaria parasite growth – strain 3D7 (AID 2306);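 also: 0% = DMSO wells and 100% = chloroquine plus artemisinin control wells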
# assay setup: P. falciparum 3D7 erythrocytic growth, LDH absorbance, 72 h; at 2 µM; hits give high values
measurement kind: growth inhibition (%)
Write the answer as a number in %, unit excluded.

Example entries and their recorded answers appear below.
• CCNc1cc(C)nc(Nc2ccc(NC(=O)c3cccs3)cc2)n1 = 101
• CCn1ccc2c(N3CCCS3(=O)=O)cc(C(=O)N[C@@H](Cc3ccccc3)[C@H](O)CNC3CCCCC3)cc21 = 97
• c1ccc2[nH]c(-c3ccc(-c4ccc(CN5CCN(c6ccncc6)CC5)cc4)s3)nc2c1 = 101

Find the recorded growth inhibition belonging to COCCNCc1ccc(-c2cccc(CN(C(=O)NCCc3ccccc3)C3CCN(Cc4ccccc4)CC3)c2)cc1 and report it. 88

Same for Cc1ccc(CN2CCN(c3cc4c(cc3Cl)CCN4C(=O)Cc3ccc(NC(=O)c4ccc(C(F)(F)F)cc4)cc3)CC2)cc1 88

Item: O=C(Nc1cccc(-c2ccc(-c3nc4ccc(C(F)(F)F)cc4[nH]3)s2)c1)c1ccncc1 99

Moving on to CCCCCCCC1CCN(C[C@H](O)c2ccnc3ccc(OC)cc23)CC1 94

Now the same for CN1CCCC1CCNCc1cccc(-c2cnc(N3CCCC(C)(C)C3)nc2)c1 (centres undefined) 98

Moving on to the next molecule: O=C(Nc1ccc(Br)cc1)N(CCN1CCOCC1)CC(O)COCc1ccc(F)cc1 (centres undefined) 90

###

# target system: L-lactate dehydrogenase (Plasmodium falciparum (isolate CDC / Honduras))
# experimental protocol: PfLDH activity inhibition – cell lysate, 3D7 strain, counter-screen for P. falciparum growth inhibition project (AID 2304);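 also: 0% = vehicle and 100% = reference inhibitor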
# assay setup: P. falciparum 3D7 crude extract, LDH APAD/NBT absorbance; at 2 µM; hits give high values
The source made the active and inactive calls. No rule for the calls is given here.
measurement kind: inhibition

Examples with answers:
• COc1ccc(C2CCN(CCN3CCC(NC(=O)c4cccc(-c5ccncc5)c4)CC3)CC2)c(OC)c1 = -6% (inactive)
• COC(=O)c1ccc(CCCNCC(O)c2cccc(C(F)(F)F)c2)cc1 (centres undefined) = 4% (inactive)

I am curious: what inhibition value has been reported for COc1cc(NC(=O)NC(CCN2CCC3(CCc4ccccc43)CC2)c2ccc(Cl)c(Cl)c2)cc(OC)c1OC (centres undefined) ? 6% (inactive)

What do we get for CN1CCCN(Cc2ccc(-c3cccc(NC(=O)c4cccc(C#N)c4)c3)cc2)CC1 ? -2% (inactive)

Then CC1(CCN2CCC(c3c[nH]c4cnccc34)CC2)CCCc2c(Br)cccc2C1=O (centres undefined) ? 3% (inactive)

Try this compound too: Fc1ccc2nc(-c3ccc(-c4ccc(CNCC5CCCO5)cc4)cc3)[nH]c2c1 (centres undefined) -3% (inactive)

And the next one, Nc1cccc(-c2ccc3ccnc(N)c3c2)c1 ? -7% (inactive)

Try this compound too: CC(=O)Nc1ccc(CNCCc2ccc(NC(=O)c3cc(Cl)cc(Cl)c3)cc2)cc1 -1% (inactive)

###

# experimental protocol: human hepatoma cell viability loss – ATP luminescence, cytotoxicity control for P. falciparum antimalarial project, primary screen (AID 2303);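 also: 0% = DMSO wells and 100% = digitonin-killed cells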
# assay setup: HepG2 viability, 24-48 h, at 10 µM, hits give high values
Examples of molecules with documented inhibition follow.
Enter your answer as a number in %; do not include the unit.

These recorded examples may help you get a feel for the data.
• COc1cccc(-c2cc(C(=O)Nc3cc(Oc4ccc(O)cc4)cc([N+](=O)[O-])c3)on2)c1 = 16
• O=S(=O)(NCCN1CCCC1)c1ccc(-c2ccc(CN3Cc4ccccc4C3)cc2)s1 = 19
• COc1ccc(NC(=O)c2c(NC(=O)c3cccs3)sc3c2CCCC3)cc1 = 4

Return reported inhibition; argument: COc1ccc(-c2ncnc(C(F)(F)F)c2-c2ccc(Cl)cc2)c(O)c1 1

Repeat with CC1CCC2(CC1)N=C(N)N=C(N)N2OCc1cc2ccccc2c2ccccc12 (centres undefined) 27

Moving on to COc1nc(Nc2cccc(C)c2)nc(OC)n1 46
